- Tested on: S. maltophilia CAN-ICU 62584
- Assay type: cell-based
Peptide text beside a SMILES is read from it. * marks the point of attachment. Acetyl(1-adamantyl) = O=C(CC12CC3CC(CC(C3)C1)C2)*; Palmitoyl = CCCCCCCCCCCCCCCC(=O)*; Lauroyl = CCCCCCCCCCCC(=O)*; Octanoyl = CCCCCCCC(=O)*
measured.quantity: MIC

These recorded examples may help you get a feel for the data.
CCCCCCCC(=O)N1CCC[C@H]1C(=O)N[C@@H](CCCNC(=N)N)C(=O)N1CCC[C@H]1C(=O)NCC(=O)N1CCC[C@H]1C(=O)N[C@@H](CCCNC(=N)N)C(=O)N1CCC[C@H]1C(N)=O [Compound C8-PGP, CH3(CH2)6CO-PRPGPRP-NH2] (Octanoyl-PRPGPRP-NH2): >128 µg/mL
CCCCCCCCCCCCCCCC(=O)N1CCC[C@H]1C(=O)N[C@@H](CCCNC(=N)N)C(=O)N1CCC[C@H]1C(=O)NCC(=O)N1CCC[C@H]1C(=O)N[C@@H](CCCNC(=N)N)C(=O)N1CCC[C@H]1C(N)=O [Compound C16-PGP, CH3(CH2)14CO-PRPGPRP-NH2] (Palmitoyl-PRPGPRP-NH2): 128 µg/mL
CCCCCCCCCCCC(=O)N1CCC[C@H]1C(=O)N[C@@H](CCCNC(=N)N)C(=O)N1CCC[C@H]1C(=O)NCC(=O)N1CCC[C@H]1C(=O)N[C@@H](CCCNC(=N)N)C(=O)N1CCC[C@H]1C(N)=O [Compound C12-PGP, CH3(CH2)10CO-PRPGPRP-NH2] (Lauroyl-PRPGPRP-NH2): >128 µg/mL

Item: CCCCCCCC(=O)N1CCC[C@H]1C(=O)N[C@@H](CCCNC(=N)N)C(=O)N1CCC[C@H]1C(=O)N[C@@H](Cc1c[nH]c2ccccc12)C(=O)N1CCC[C@H]1C(=O)N[C@@H](CCCNC(=N)N)C(=O)N1CCC[C@H]1C(N)=O [Compound C8-PWP, CH3(CH2)6CO-PRPWPRP-NH2] (Octanoyl-PRPWPRP-NH2) | MIC: >128 µg/mL

Item: CCCCCCCCCCCC(=O)N1CCC[C@H]1C(=O)N[C@@H](CCCNC(=N)N)C(=O)N1CCC[C@H]1C(=O)N[C@@H](CCCNC(=N)N)C(=O)N1CCC[C@H]1C(=O)N[C@@H](CCCNC(=N)N)C(=O)N1CCC[C@H]1C(N)=O [Compound C12-PRP, CH3(CH2)10CO-PRPRPRP-NH2] (Lauroyl-PRPRPRP-NH2) | MIC: >128 µg/mL

Item: N=C(N)NCCC[C@H](NC(=O)[C@@H]1CCCN1C(=O)[C@H](Cc1c[nH]c2ccccc12)NC(=O)[C@@H]1CCCN1C(=O)[C@H](CCCNC(=N)N)NC(=O)[C@@H]1CCCN1C(=O)CC12CC3CC(CC(C3)C1)C2)C(=O)N1CCC[C@H]1C(N)=O [Ad-PWP, Adamantyl-CH2CO-PRPWPRP-NH2] ({Acetyl(1-adamantyl)}-PRPWPRP-NH2) | MIC: >128 µg/mL

Item: CCCCCCCCCCCCCCCC(=O)N1CCC[C@H]1C(=O)N[C@@H](CCCNC(=N)N)C(=O)N1CCC[C@H]1C(=O)N[C@@H](CCCNC(=N)N)C(=O)N1CCC[C@H]1C(=O)N[C@@H](CCCNC(=N)N)C(=O)N1CCC[C@H]1C(N)=O [Compound C16-PRP, CH3(CH2)14CO-PRPRPRP-NH2] (Palmitoyl-PRPRPRP-NH2) | MIC: 64 µg/mL

Item: CCCCCCCC(=O)N1CCC[C@H]1C(=O)N[C@@H](CCCNC(=N)N)C(=O)N1CCC[C@H]1C(=O)N[C@@H](CCCNC(=N)N)C(=O)N1CCC[C@H]1C(=O)N[C@@H](CCCNC(=N)N)C(=O)N1CCC[C@H]1C(N)=O [Compound C8-PRP, CH3(CH2)6CO-PRPRPRP-NH2] (Octanoyl-PRPRPRP-NH2) | MIC: >128 µg/mL

====

- Tested on: E. coli CAN-ICU 63074 (amikacin-intermediate resistant)
- Format: cell-based
Peptide text beside a SMILES is read from it. * marks the point of attachment. Palmitoyl = CCCCCCCCCCCCCCCC(=O)*
measured.quantity: MIC (µg/mL)
Report only the number, with the unit µg/mL understood.

CCCCCCCCCCCCCCCC(=O)N1CCC[C@H]1C(=O)N[C@@H](CCCNC(=N)N)C(=O)N1CCC[C@H]1C(=O)N[C@@H](Cc1c[nH]c2ccccc12)C(=O)N1CCC[C@H]1C(=O)N[C@@H](CCCNC(=N)N)C(=O)N1CCC[C@H]1C(N)=O [Compound C16-PWP, CH3(CH2)14CO-PRPWPRP-NH2] (Palmitoyl-PRPWPRP-NH2): 16

Next up:
Item: CCCCCCCCCCCCCCCC(=O)N1CCC[C@H]1C(=O)N[C@@H](CCCNC(=N)N)C(=O)N1CCC[C@H]1C(=O)NCC(=O)N1CCC[C@H]1C(=O)N[C@@H](CCCNC(=N)N)C(=O)N1CCC[C@H]1C(N)=O [Compound C16-PGP, CH3(CH2)14CO-PRPGPRP-NH2] (Palmitoyl-PRPGPRP-NH2) | MIC: 32

====

Quick reference: MIC of the listed items.
- Test system: E. coli CAN-ICU 63074 (amikacin-intermediate resistant)
- Format: cell-based
Peptide text beside a SMILES is read from it. * marks the point of attachment. Palmitoyl = CCCCCCCCCCCCCCCC(=O)*
Report only the number, with the unit µg/mL understood.

CCCCCCCCCCCCCCCC(=O)N1CCC[C@H]1C(=O)N[C@@H](CCCNC(=N)N)C(=O)N1CCC[C@H]1C(=O)N[C@@H](CC(C)C)C(=O)N1CCC[C@H]1C(=O)N[C@@H](CCCNC(=N)N)C(=O)N1CCC[C@H]1C(N)=O [Compound C16-PLP, CH3(CH2)14CO-PRPLPRP-NH2] (Palmitoyl-PRPLPRP-NH2): 64

Next up:
Sample CCCCCCCCCCCCCCCC(=O)N1CCC[C@H]1C(=O)N[C@@H](CCCNC(=N)N)C(=O)N1CCC[C@H]1C(=O)N[C@@H](CCCNC(=N)N)C(=O)N1CCC[C@H]1C(=O)N[C@@H](CCCNC(=N)N)C(=O)N1CCC[C@H]1C(N)=O [Compound C16-PRP, CH3(CH2)14CO-PRPRPRP-NH2] (Palmitoyl-PRPRPRP-NH2) , system: E. coli CAN-ICU 63074 (amikacin-intermediate resistant). Its MIC is 8
